FYI, the data here is from paper PMC9610999.

test: Plasma pharmacokinetics of oral gilteritinib in mice, with or without itraconazole pretreatment; type: in vivo; conditions: male, OATP1B2(−/−) on DBA1/lacJ background, mouse, plasma, po, 10 mg/kg, OATP1B2(−/−) male mice, gilteritinib 10 mg/kg p.o., itraconazole 100 mg/kg 30 min before; mean (SD); read-out: Gilteritinib AUC0–24h
readout_name: AUC(0-t)
A complete answer gives the number followed by the unit.

Any idea what its AUC(0-t) is? The compound is CCc1nc(C(N)=O)c(Nc2ccc(N3CCC(N4CCN(C)CC4)CC3)c(OC)c2)nc1NC1CCOCC1 [Gilteritinib]
15000 ng·h/mL
